inhibition at 30 µM values by entry
# Tested on: MIA-PACA2 pancreatic cancer cell lines
# Test Description: Cell proliferation assay (CellTiter 96 AQueous One)
# Type: cell-based
# Reported Conditions: Homo sapiens, MIA PaCa-2; at 30 μM, MIA-PACA2

Molecule | inhibition at 30 µM
CC(C)(C)c1nc(C(=O)Nc2nnc(-c3ccccn3)[nH]2)cs1 [drawing 1454] | 76 to 100%
O=C(Cc1ccc(F)cc1)Nc1nnc(-c2ccccn2)[nH]1 [drawing 1427] | 51 to 75%
Cc1cccc(CN(Cc2ccccn2)Cc2nccn2C)c1 [drawing 1519] | 76 to 100%
CCn1nc(C)cc1-c1csc2c(O)nc(-c3ccccn3)nc12 [drawing 1779] | 76 to 100%
Oc1ccc(C2(c3cccc(Cl)c3)CCCC2)cc1 [drawing 1525] | 76 to 100%
Cc1cnc(-c2ccccn2)nc1NC(=O)Cc1ccc2cnccc2c1 [drawing 1732] | 76 to 100%
O=C(NCCc1ccnc(O)c1)c1csc2nc(-c3ccccn3)nc(N3CCOCC3)c12 [drawing 1676] | 51 to 75%
O=S(=O)(CCc1ccccc1)N1CCCc2c(O)nc(-c3ccccn3)nc21 [drawing 1552] | 1 to 25%
Oc1nc(-c2ccccn2)nc2sc3c(c12)CCNC3 [drawing 1727] | 76 to 100%

---

# Assay System: KRas Q61H mutant (Homo sapiens (Human), UniProt P01116, Q61H)
# Sequence (P01116-2 other isoform, or with tags, fused parts or gaps Q61H): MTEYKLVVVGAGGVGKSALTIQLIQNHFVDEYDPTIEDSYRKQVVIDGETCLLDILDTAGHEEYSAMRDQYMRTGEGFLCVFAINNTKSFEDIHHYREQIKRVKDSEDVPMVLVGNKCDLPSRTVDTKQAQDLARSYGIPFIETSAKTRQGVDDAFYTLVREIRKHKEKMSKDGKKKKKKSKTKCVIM
# Test Description: Ras GTP binding domain inhibition assay (labeled GTP)
# Reported Conditions: 20 μM compound; KRas Q61H; read-out: % Inhibition at 20 μM of K-Ras mutant and wild-type protein, KRas Q61H
Experimental Endpoint: inhibition at 20 µM

Compound | Experimental Endpoint | Observed Result
Cc1sc2c(O)nc(-c3ccccn3)nc2c1-c1ccccc1Cl [drawing 3515] | inhibition at 20 µM | 76 to 100%
COc1ccc(COC[C@H]2O[C@@H](c3csc4c(=O)[nH]c(-c5ccccn5)nc34)[C@H](O)[C@@H]2O)cc1 [drawing 3533] | inhibition at 20 µM | 51 to 75%
Cc1c(C(=O)O)sc2c(O)nc(-c3ccccn3)nc12 [drawing 3475] | inhibition at 20 µM | 51 to 75%
Nc1nc(O)c2sc(-c3cccc(C(=O)NCc4cccc(O)n4)c3)cc2n1 [drawing 3546] | inhibition at 20 µM | 0%
COc1ccc(CCC(=O)Nc2nc(-c3ccccn3)nc3sccc23)cn1 [drawing 3493] | inhibition at 20 µM | 76 to 100%
COc1c(O)nc(-c2ccccn2)nc1Oc1cccc(C(F)(F)F)c1 [drawing 3557] | inhibition at 20 µM | 51 to 75%
COc1cnc(-c2nccn2C)nc1O [drawing 3513] | inhibition at 20 µM | 76 to 100%
Oc1nc(-c2ccccn2)nc2c(-c3ccc(Cl)c(Cl)c3)csc12 [drawing 3463] | inhibition at 20 µM | 25 to 50%

---

inhibition at 20 µM values by entry
# Assay System: Rac-1 (Homo sapiens (Human), UniProt P63000)
# Test Description: Rac inhibition assay (labeled GTP)
# Assay type: binding
# Reported Conditions: read-out: Rac-1 % Inh.

Molecule | inhibition at 20 µM
Oc1nc(-c2ccccn2)nc2sccc12 [drawing 3624] | 76 to 100%
O=C(c1csc2c(O)nc(-c3ccccn3)nc12)N1CCOC(c2nccs2)C1 (stereo not drawn) [drawing 3631] | 76 to 100%
COCC(C)Nc1nc(-c2ccccn2)nc(C(=O)NCCCc2c[nH]cn2)c1Oc1ccccc1 (stereo not drawn) [drawing 3868] | 25 to 50%
COc1cnc(-c2ccccn2)nc1O [drawing 3787] | 76 to 100%
N#Cc1ccc(COCC(=O)Nc2ccnc(-c3ccccn3)n2)cc1 [drawing 3685] | 76 to 100%
Oc1nc(-c2ccccn2)nc2c(-c3ccccc3OC3CCCCC3)csc12 [drawing 3738] | 51 to 75%
COc1cnc(C2(N)CCCC2)nc1O [drawing 3809] | 1 to 25%
COC(C)(C)c1ccc(-c2csc3c(O)nc(-c4nccn4C)nc23)cc1 [drawing 3936] | 25 to 50%
COc1ccc(CCNC(=O)c2csc3nc(-c4ccccn4)nc(N4CCS(=O)(=O)CC4)c23)cn1 [drawing 3725] | 25 to 50%
Cn1ccnc1-c1nc(O)c2scc(-c3ccc(F)cc3F)c2n1 [drawing 3934] | 51 to 75%
Cc1sc2c(O)nc(-c3nccn3C)nc2c1-c1ccc(OC(C)C)c(F)c1 [drawing 3928] | 51 to 75%
O=C(c1csc2c(O)nc(-c3ccccn3)nc12)N1CCNC(c2ccc(F)cc2)C1 (stereo not drawn) [drawing 3696] | 76 to 100%
O=C(c1csc2c(O)nc(-c3ccccn3)nc12)N1CCN(c2ccc(O)c(Cl)c2)CC1 [drawing 3692] | 76 to 100%
Oc1nc(-c2ccccn2)nc2sc3c(c12)CCNC3 [drawing 3723] | 76 to 100%
Oc1nc(-c2ccccn2)nc2cc(-c3ccccc3)sc12 [drawing 3880] | 25 to 50%
Oc1nc(-c2ncccn2)nc2c(-c3cccc(C(F)(F)F)c3)csc12 [drawing 3926] | 51 to 75%
O=C(c1csc2c(O)nc(-c3ccccn3)nc12)N1CCN(Cc2cccc(O)c2)CC1 [drawing 3629] | 76 to 100%
COC(=O)c1c(C)sc2c(O)nc(-c3ccccn3)nc12 [drawing 3792] | 76 to 100%
Oc1nc(-c2ccccn2)nc2c(-c3ccc(OC4CCOCC4)cc3)csc12 [drawing 3739] | 51 to 75%
COc1nc(-c2ccccn2)nc(Oc2cccc(C(F)(F)F)c2)c1OC [drawing 3870] | 1 to 25%
COc1ncc(CCNC(=O)c2csc3nc(-c4ccccn4)nc(N4CCOCC4)c23)cn1 [drawing 3637] | 51 to 75%
O=C(c1csc2c(O)nc(-c3ccccn3)nc12)N1CCN(Cc2ccc(O)cc2)CC1 [drawing 3653] | 51 to 75%
O=C(c1csc2c(O)nc(-c3ccccn3)nc12)N1CCNC(Cc2cccc(F)c2)C1 (stereo not drawn) [drawing 3704] | 51 to 75%
COc1cnc(-c2cnc[nH]2)nc1O [drawing 3834] | 76 to 100%
Oc1nc(-c2ccccn2)nc2c(-c3ccccn3)csc12 [drawing 3768] | 51 to 75%
COCCNc1nc(-c2nccn2C)nc2sc(-c3ccccc3Cl)c(-c3ccccc3)c12 [drawing 3899] | 0%
Oc1nc(-c2ccccn2)nc2c(-c3ccccc3Cl)csc12 [drawing 3626] | 76 to 100%
Cc1sc2c(O)nc(-c3ccccn3)nc2c1-c1ccccc1Cl [drawing 3833] | 76 to 100%
Cn1cnc(-c2nc(O)c3scc(-c4cccc(C(F)(F)F)c4)c3n2)c1 [drawing 3922] | 25 to 50%
CC(C)(C)c1ccc(-c2csc3c(O)nc(-c4ccccn4)nc23)cc1 [drawing 3719] | 51 to 75%
CC(C)COc1ccc(-c2csc3c(O)nc(-c4cn(C)cn4)nc23)cn1 [drawing 3923] | 25 to 50%
CCn1nc(C)cc1-c1csc2c(O)nc(-c3ccccn3)nc12 [drawing 3775] | 51 to 75%
COc1cnc(-c2cn(C)cn2)nc1O [drawing 3815] | 76 to 100%
COCCNc1nc(-c2nccn2C)nc2sc(-c3ccccc3)c(-c3ccncc3)c12 [drawing 3914] | 76 to 100%
Cn1ccnc1-c1nc(O)c2sc(-c3ccccc3)c(-c3ccccc3)c2n1 [drawing 3906] | 0%
O=C(c1csc2c(O)nc(-c3ccccn3)nc12)N1CCOC(c2ccccc2Cl)C1 (stereo not drawn) [drawing 3658] | 51 to 75%
